Molecular target: Tyrosine-protein phosphatase non-receptor type 1 (Homo sapiens)

{"smiles code": "CCOC(=O)/C(O)=C/C(=O)c1cccc(Cn2cc(C(=O)O)c(=O)c3cc(I)ccc32)c1", "Ki [µM]": 1.33}

###

Molecular target: Tyrosine-protein phosphatase non-receptor type 1 (Homo sapiens, UniProt P18031)
Sequence (P18031 whole entry): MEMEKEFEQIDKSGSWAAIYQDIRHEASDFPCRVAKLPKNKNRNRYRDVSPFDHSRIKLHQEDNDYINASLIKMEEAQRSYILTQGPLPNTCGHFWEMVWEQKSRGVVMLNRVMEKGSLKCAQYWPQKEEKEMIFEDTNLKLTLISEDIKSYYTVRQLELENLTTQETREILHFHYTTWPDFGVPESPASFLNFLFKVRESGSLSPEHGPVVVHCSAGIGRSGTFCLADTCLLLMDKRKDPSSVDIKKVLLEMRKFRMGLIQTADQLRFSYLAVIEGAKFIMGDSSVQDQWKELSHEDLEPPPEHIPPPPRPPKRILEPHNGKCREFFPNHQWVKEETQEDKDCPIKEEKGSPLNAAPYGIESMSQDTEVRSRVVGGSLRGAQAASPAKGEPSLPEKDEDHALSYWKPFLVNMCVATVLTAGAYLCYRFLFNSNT
test readout: log10 IC50 (log10 of the value in µM)

{"smiles code": "CCOC(=O)/C(O)=C/C(=O)c1cccc(Cn2cc(C(=O)O)c(=O)c3cc(I)ccc32)c1", "log10 IC50": 0.75}
{"smiles code": "COC(=O)c1c(OCCCN2CCN(c3ccc4c(c3)c(=O)c(C(=O)O)cn4C3CC3)CC2)cccc1OCc1ccccc1", "log10 IC50": 1.87}
{"smiles code": "O=C(O)c1cn(C2CC2)c2ccc(Cc3ccccc3)cc2c1=O", "log10 IC50": 1.37}
{"smiles code": "O=C(OCc1ccccc1)c1cn(C2CC2)c2ccc(I)cc2c1=O", "log10 IC50": 1.41}
{"smiles code": "O=C(/C=C(\\O)C(=O)N1CCN(C(=O)/C(O)=C\\C(=O)c2cccc(N(Cc3ccccc3)Cc3ccccc3)c2)CC1)c1cccc(N(Cc2ccccc2)Cc2ccccc2)c1", "log10 IC50": 0.45}
{"smiles code": "O=C(O)c1cn(C2CC2)c2ccc(N3CCN(Cc4ccccc4)CC3)cc2c1=O", "log10 IC50": 1.36}
{"smiles code": "COC(=O)c1c(O)cccc1OCCCNC(=O)c1cn(Cc2ccccc2)c2cc(F)ccc2c1=O", "log10 IC50": 1.27}
{"smiles code": "O=C(NCc1ccccc1)c1cn(Cc2ccccc2)c2ccc(I)cc2c1=O", "log10 IC50": 1.45}
{"smiles code": "COC(=O)c1c(O)cccc1OCCCNC(=O)c1cn(Cc2ccc(F)cc2)c2ccc([N+](=O)[O-])cc2c1=O", "log10 IC50": 1.07}
{"smiles code": "O=C(O)c1cn(C2CC2)c2ccc(Cc3ccc(F)cc3)cc2c1=O", "log10 IC50": 1.56}
